The origin of these recorded values is PubChem BioAssay (NCI).

- Test system: CAKI-1 renal
- testMethodNotes: NCI tumour cell line growth inhibition, 48 h
quantityName: TGI

compound | TGI
Cc1cc(N/N=C/c2nc(-c3ccc(Cl)cc3)oc2C)c2cc(Br)ccc2n1 | 4.71 µM
COc1ccc(-c2c(-c3ccccc3)c(C)c3ccccn23)cc1 | > 100 µM
Nc1[nH]c(=O)nc2snnc12 | > 28.8 µM
COC(=O)C(=O)C(CC(=O)Nc1ccc(C)cc1)C(=O)OC (stereo unspecified) | > 100 µM
COc1ccc(C2=NC(=O)NC2c2ccc(OC)cc2)cc1 (stereo unspecified) | 15.4 µM

Proceeding to the next compound to report its TGI.
The reported value for `N#[N+]c1c([O-])c2ccccc2c2ccccc12` in terms of TGI is > 100 µM

====

- Test system: M14 melanoma
- testMethodNotes: NCI tumour cell line growth inhibition, 48 h
Please respond with reported TGI for every item in the list.

testSmiles | quantityName | reportedValue
COc1ccc(-c2nc(-c3nc4cc(Cl)c(F)cc4[nH]3)c3ccccn23)cc1 | TGI | > 100 µM
Nc1ccc(-c2nc3ccc(F)cc3s2)cc1Cl | TGI | > 100 µM

Note: attention shifts to another entry.
Result for `CN(Cc1ccc(F)cc1)c1ccc(CO)c(Cl)c1` , tested on M14 melanoma, TGI: > 76.9 µM

====

- Test system: HS 578T breast
- testMethodNotes: NCI tumour cell line growth inhibition, 48 h
quantityName: TGI

compound | TGI
Clc1ccc(-c2cc(-c3cc4cc(Br)ccc4nc3Cl)on2)cc1 | > 50 µM
Oc1[nH]c2ccccc2c1C1=Nc2ccccc2/C1=N\OCCOC1OCC(O)C(O)C1O (stereo not given) | > 100 µM
COC1(C2c3ccccc3CCN2C(=O)OC(C)(C)C)C(=O)C(c2ccccc2)=C1N(C)C (stereo not given) | 96.9 µM
NC(=O)CSc1c2cc(O)ccc2nc2ccc(O)cc12 | > 10 µM
COc1ccc(-c2nc(-c3nc4cc(Cl)c(F)cc4[nH]3)c3ccccn23)cc1 | > 100 µM

Fill in TGI for each of the 3 compounds listed.
1. O=c1[nH]nc(-c2ccccc2)n1/N=C/c1cccc([N+](=O)[O-])c1
2. O=C1c2cccnc2-c2nc(-c3cccnc3)cc3c2c1nc1ccccc13
3. CCCCCCCCC/C=C1/CC(CO)(COC(=O)CC(C(C)C)C(C)C)OC1=O (stereo not given)

["> 100 µM", "> 20.9 µM", "3.91 µM"]

// each listed compound needs a value for TGI
1. CCC(=O)N/S(=N/S(=O)(=O)c1ccccc1)C(Cl)(Cl)Cl (stereo not given)
2. Cc1ccc(S(=O)(=O)CNC(=O)C(O)(O)C(F)(F)F)cc1

1. > 100 µM
2. > 100 µM

====

Kindly supply the reported TGI values for the records listed here.
- Tested on: NCI-H522 lung
- testMethodNotes: NCI tumour cell line growth inhibition, 48 h
Numbers only, in µM.

Illustrative cases are given below, each with its answer.
testSmiles | readingUnit | TGI
CCn1cc(/C=C2\Oc3cc(OCC#N)ccc3C2=O)c2cc(OC)ccc21 | µM | 28.5
O=C(/C=C1\Sc2ccccc2N=C1CC(=O)c1ccccc1)c1ccccc1 | µM | 55.4
N#[N+]c1c([O-])c2ccccc2c2ccccc12 | µM | 85

Next item in the queue.
Looking up `C=C1C(=O)O[C@H]2[C@H]1CC/C(COC(=O)N[C@H]1C[C@H](O[C@H]3C[C@](O)(C(=O)CO)Cc4c(O)c5c(c(O)c43)C(=O)c3c(OC)cccc3C5=O)O[C@@H](C)[C@H]1O)=C\CC[C@@]1(C)O[C@@H]21` , I see its TGI listed as 1.68

====

- Tested on: KM12 colon
- testMethodNotes: NCI tumour cell line growth inhibition, 48 h
For each record, write down the corresponding TGI.

Use the examples below as a reference point.
compound | TGI
COc1ccc2oc(S(=O)(=O)N3CC(CCl)c4ccc(N)cc43)cc2c1 (stereo not drawn) | 6.02 µM
COC/N=C(\NC#N)NCOC | > 100 µM

Required: TGI, one value per compound below.
1. CC(Oc1ccc(Oc2cnc3ccc(Cl)cc3n2)cc1)C(=O)O (stereo not drawn)
2. Clc1ccc2c(NCCCCN3OC3c3ccccc3)ccnc2c1 (stereo not drawn)
3. O=c1[nH]c(SCc2cccc([N+](=O)[O-])c2)nc2nc[nH]c12
4. CCOP(=O)(OCC)/C(C#N)=C/c1ccccn1
5. COc1ccc(-c2nc(-c3nc4cc(Cl)c(F)cc4[nH]3)c3ccccn23)cc1
6. O=[N+]([O-])C(/C(Cl)=C(\Cl)Br)=C(/Cl)SCc1ccccc1

["> 100 µM", "22.8 µM", "> 100 µM", "> 100 µM", "> 100 µM", "30 µM"]

Batch request: TGI for each of the following compounds.
1. COc1ccc(/C=C(\NC(=O)c2ccccc2)c2nc3ccccc3[nH]2)cc1OC
2. O=C(/C=C1\Sc2ccccc2N=C1CC(=O)c1ccccc1)c1ccccc1
3. C=C1C(=O)C23[C@H](O)C1CC[C@H]2[C@]12COC3(O)[C@@H](O)[C@@H]1C(C)(C)CC[C@@H]2O
4. O=[N+]([O-])c1cc([As](Br)c2ccc(O)c([N+](=O)[O-])c2)ccc1O
5. Cc1cccc2oc3c(c(=O)c12)CC(O)C(C)(C)O3 (stereo not drawn)

1. > 100 µM
2. 24.5 µM
3. 31.4 µM
4. 4.06 µM
5. > 100 µM

# return TGI for each item in the list
1. c1ccc2c(c1)NCc1cc3ccccc3nc1O2
2. O=C1C[C@@]23CCC4(CC2CCC[C@H]3O1)OCCO4 (stereo partly drawn)
3. O=C(c1ccc2ccccc2c1)c1nc2cc(F)ccc2[n+]([O-])c1C(F)(F)F
4. Oc1[nH]c2ccccc2c1C1=Nc2ccccc2/C1=N\OCCOC1OCC(O)C(O)C1O (stereo not drawn)
5. CC(C)(C)NCC(O)COc1c(Br)c(Br)c(Br)c2c1OC(C)(C)C2 (stereo not drawn)

> 100 µM
> 100 µM
39.4 µM
> 100 µM
3.4 µM

====

- Test system: PC-3 prostate
- testMethodNotes: NCI tumour cell line growth inhibition, 48 h
quantityName: GI50

compound | GI50
Cc1cn(-c2cccc(NC(=O)c3ccc(C)c(Nc4nccc(-c5cccnc5)n4)c3)c2)cn1 | 2.33 µM
CC(C)(C)NCC(O)COc1c(Br)c(Br)c(Br)c2c1OC(C)(C)C2 (stereo not drawn) | 1.66 µM

// switching to the query compound
So for O=C(CC1(O)C(=O)Nc2ccc(F)cc21)c1ccc(C(=O)NCC2CCC3(CC2)OOC2(CCCCC2)OO3)cc1 (stereo not drawn) , the logged GI50 turned out to be 3.86 µM

====

- Tested on: HCT-15 colon
- testMethodNotes: NCI tumour cell line growth inhibition, 48 h
quantityName: log10 of TGI (log10 of the value in µM)
For clarity, the numbers are log10 values of TGI expressed in µM.

Below are worked cases with known answers.
molecule | log10 of TGI
COc1cccc2c1C(=O)c1c(O)c3c(c(O)c1C2=O)C[C@@](O)(C(=O)COC(=O)c1ccccc1)C[C@@H]3OC1CC(N)C(O)C(C)O1 (stereo partly specified) | 0.25
CN(C)CCCOc1cccc(NC2=C(Cl)C(=O)C(Nc3cccc(OCCCN(C)C)c3)=C(Cl)C2=O)c1 | 0.39
Cc1ccc(S(=O)(=O)c2nc(-c3ccccc3)oc2S(C)(=O)=O)cc1 | 0.52
CCCCCCCCC/C=C1/CC(CO)(COC(=O)CC(C(C)C)C(C)C)OC1=O (stereo unspecified) | 1.46
CCCc1nc(Cl)nc(Cl)c1Cl | 0.50

# batch: return log10 of TGI for each of the 4 molecules below
1. N#CC1=C(N)N(/N=C/c2ccccc2)C(c2ccccc2)C1(C#N)C#N (stereo unspecified)
2. Cc1ccc(S(=O)C[C@](NC(=O)OCc2ccccc2)(Sc2ccccc2)C(F)F)cc1 (stereo partly specified)
3. COc1ccc(/C=C2/C(=O)N(C(=O)c3ccccc3O)N=C2C)cc1
4. CC(=O)O[C@H]1CC[C@@]2(C)C(=CC[C@@H]3[C@@H]2CC[C@]2(C)c4c(n[nH]c4C)C[C@@H]32)C1

1. 1.27
2. 1.61
3. 0.09
4. 1.53

State the recorded log10 of TGI for every item in the following list.
1. CC(=O)/C=C/c1ccc(Nc2c3ccccc3nc3occ(Cl)c23)cc1
2. CCCC1(CN2c3ccccc3Sc3ccc(Cl)cc32)CCN(CC)C1 (stereo unspecified)

1.07
0.58

====

- Test system: SR leukemia
- testMethodNotes: NCI tumour cell line growth inhibition, 48 h; in the data active means GI50 below about 0.43 µM; inactive means the rest
# valid calls are active, inactive; nothing else

// known answers, use as guide
molecule | labelClass
CC(=O)c1ccc2c(c1)N(CCCN1CCN(CCO)CC1)c1ccccc1S2 | inactive
COc1ccc(-c2nc(-c3nc4cc(Cl)c(F)cc4[nH]3)c3ccccn23)cc1 | inactive
ClCc1cccc(Cn2cnc3c(Cl)nc(Cl)nc32)c1 | inactive

What outcome does the record of this test show for COc1cc(F)ccc1-c1cc(Nc2cc(CS(C)(=N)=O)ccn2)ncc1F (configuration not stated) ?
active

Kindly provide the recorded test outcome for the following molecule: `CCCCCCNCCCNc1c2cc(OC)ccc2nc2cccc([N+](=O)[O-])c12`
active

Dear colleague, could you share the recorded outcome for `O=C(Nc1cccc2[nH]c(C(F)(F)F)nc12)c1cc(Cl)ccc1Cl` when you have a moment?
inactive

Check the results log: what was the call for `CCOC(=O)c1ccc(NC(=O)NC2=NCCS2)cc1` ?
inactive
